test: small-molecule microarray binders of probe aCHRDL2, primary screen, biochemical, biotinylated probe, 635/667 nm fluorescence (AID 1100); details: higher = more signal
The molecules listed here are annotated with their composite z-score.

Data point: C[C@H](c1ccccc1)N1C(=O)[C@H]2[C@@H]3C(=CC[C@H]2C1=O)C(=O)[C@H]1O[C@H]1[C@H]3O ; composite z-score = -0.559

Data point: COc1ccc(OC[C@H]2Cc3c(-c4ccccc4)nc4c(c3CO2)CN(CCOc2ccccc2)CC4)cc1 ; composite z-score = -0.233

Data point: COC(=O)[C@@]1(Cc2ccc(F)cc2)[C@@H]2C(=CC(=O)[C@H]2CC(=O)C(=O)N(C)C)CN1C(=O)c1ccccc1 ; composite z-score = 0.921

---

assay: small-molecule microarray binders of probe aEGFR, primary screen, biochemical, biotinylated probe, 635/667 nm fluorescence (AID 1097); conditions: higher = more signal;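 note: probe is a biotinylated anti-EGFR antibody binding compounds printed on slides; score combines fluorescence near 667 nm and signal to noise of each spot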
Measured attribute: composite z-score
# output: bare number, no unit

Consider the reported composite z-score for these molecules:
Data point: CC(CCC(=O)OC[C@H]1O[C@H](C#Cc2ccccc2)C=C[C@@H]1Oc1ccc(C)cc1)=NO[C@@H](C)c1cn([C@H](CO)Cc2ccccc2)nn1 ; composite z-score = -0.0461

Data point: COCCOC(=O)N1C(=O)[C@@]2(c3cc(C#Cc4ccc(OC)cc4)ccc31)[C@H](C(=O)N1CCN(c3ncccn3)CC1)[C@H]1C(=O)O[C@H](c3ccccc3)[C@H](c3ccccc3)N1[C@@H]2c1ccc(OCCO)cc1 ; composite z-score = 0.232

Data point: CCOC(=O)NN=C1C[C@@H](O)[C@@H](O)[C@@H]2[C@@H]3C(=O)N(C4CCCCC4)C(=O)[C@@H]3CC[C@@H]12 ; composite z-score = -0.0329

Continuing:
Data point: CN1C(=O)C2C=CC(C(O)C(c3ccccc3)c3ccccc3)N(NC(=O)OC(C)(C)C)C2C1=O (centres undefined) ; composite z-score = 0.311

---

system: Human papillomavirus type 1a protein E7 (residues 44-93); test: HPV1a E7 fragment binders on microarrays, primary screen, biochemical, small-molecule microarray, residues 44-93, 635 nm fluorescence (AID 1108); conditions: small-molecule microarray binding, fluorescence 635 nm; higher = more signal;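 note: E7 fragment applied at 1 µg/mL in TBST for 1 h at 4 C; score combines spot fluorescence with its signal to noise ratio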
Please use MET whenever composite z-score is not below 0.7, and NOT MET whenever it is.

Past entries and their recorded results:
q: Textbook exercise: given the entry CC(C)CON=C1C[C@@H](O)[C@@H](O)[C@@H]2[C@@H]3C(=O)N(C[C@@H]4CCCO4)C(=O)[C@@H]3CC[C@H]12 , state whether its composite z-score is greater than or equal to 0.7.
a: NOT MET

q: Textbook exercise: given the entry CC(CCC(=O)OC[C@H]1O[C@H](C#Cc2ccccc2)C=C[C@@H]1Oc1ccc(C)cc1)=NO[C@@H](C)c1cn([C@H](CO)Cc2ccccc2)nn1 , state whether its composite z-score is greater than or equal to 0.7.
a: NOT MET

q: Textbook exercise: given the entry COc1cccc([C@@H]2Oc3ccc(Br)cc3C(=O)[C@H]2O)c1 , state whether its composite z-score is greater than or equal to 0.7.
a: NOT MET

Continuing:
q: Textbook exercise: given the entry O=C1[C@H]2[C@H]3[C@H](O)[C@H](O)CC(=NOCc4ccccc4)[C@H]3CC[C@H]2C(=O)N1c1ccc(F)cc1F , state whether its composite z-score is greater than or equal to 0.7.
a: NOT MET

q: Textbook exercise: given the entry C#CCCCON=C1C[C@@H](O)[C@@H](O)[C@@H]2[C@@H]3C(=O)N(CCC(=O)OCC)C(=O)[C@@H]3CC[C@@H]12 , state whether its composite z-score is greater than or equal to 0.7.
a: NOT MET
